- measurement-target: Neuromedin-K receptor (Cavia porcellus)
- Sequence (P30098 whole entry): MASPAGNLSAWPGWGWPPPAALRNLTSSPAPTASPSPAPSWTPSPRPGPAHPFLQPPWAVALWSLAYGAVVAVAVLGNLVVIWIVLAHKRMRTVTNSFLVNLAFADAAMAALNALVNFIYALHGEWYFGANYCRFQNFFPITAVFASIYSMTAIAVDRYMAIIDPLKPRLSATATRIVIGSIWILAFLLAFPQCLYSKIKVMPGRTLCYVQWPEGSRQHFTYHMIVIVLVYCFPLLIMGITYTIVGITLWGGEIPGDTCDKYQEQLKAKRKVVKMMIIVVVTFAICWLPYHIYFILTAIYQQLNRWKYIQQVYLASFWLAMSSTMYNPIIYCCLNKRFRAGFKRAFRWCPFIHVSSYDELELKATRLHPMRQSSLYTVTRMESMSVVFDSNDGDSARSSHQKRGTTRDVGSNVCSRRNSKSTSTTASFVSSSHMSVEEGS
pIC50: −log10 of the molar value.
experimental-readout: pIC50

1) COc1cc(C(=O)N2CC[C@](CCN3CCC(C(N)=O)(c4ccccc4)CC3)(c3ccc(Cl)c(Cl)c3)C2)cc(OC)c1OC; 7.68
2) CC(=O)NC1(c2ccccc2)CCN(CC[C@H](CN(C)C(=O)c2ccccc2)c2ccc(Cl)c(Cl)c2)CC1; 6.68

###

We begin with a simple list: items and their reported IC50.
- measurement-target: Substance-K receptor (Homo sapiens, UniProt P21452)
- Sequence (P21452 whole entry): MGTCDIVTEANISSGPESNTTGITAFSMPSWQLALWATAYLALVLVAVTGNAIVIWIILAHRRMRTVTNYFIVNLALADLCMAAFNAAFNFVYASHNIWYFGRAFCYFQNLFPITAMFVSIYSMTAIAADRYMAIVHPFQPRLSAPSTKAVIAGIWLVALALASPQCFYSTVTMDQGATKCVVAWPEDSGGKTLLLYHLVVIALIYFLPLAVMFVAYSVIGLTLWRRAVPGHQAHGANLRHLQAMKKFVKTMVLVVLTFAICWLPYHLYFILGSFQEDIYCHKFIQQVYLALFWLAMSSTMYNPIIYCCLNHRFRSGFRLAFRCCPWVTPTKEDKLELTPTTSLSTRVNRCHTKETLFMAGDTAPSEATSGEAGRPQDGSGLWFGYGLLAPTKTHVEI
- experiment-notes: Binding affinity against human NK2 receptors from HSKR-1 cells using [125I]-Iodohistidyl NKA
experimental-readout: IC50 (nM)

1. COc1cc(C(=O)N2CCC(CCN3CCC(C(N)=O)(c4ccccc4)CC3)(c3ccc(Cl)c(Cl)c3)C2)cc(OC)c1OC(C)C (centres undefined); 42.4
2. COc1cc(C(=O)N2CC[C@](CCN3CCC(C(N)=O)(c4ccccc4)CC3)(c3ccc(Cl)c(Cl)c3)C2)cc(OC)c1OC; 8.4
3. COc1cc(C(=O)N2CCC(CCN3CCC(C(N)=O)(c4ccccc4)CC3)(c3ccc(Cl)c(Cl)c3)C2)cc(OC)c1OC (centres undefined); 18.8

###

# key: entry, value: pIC50
- measurement-target: Substance-P receptor (Homo sapiens)
- Sequence (P25103 whole entry): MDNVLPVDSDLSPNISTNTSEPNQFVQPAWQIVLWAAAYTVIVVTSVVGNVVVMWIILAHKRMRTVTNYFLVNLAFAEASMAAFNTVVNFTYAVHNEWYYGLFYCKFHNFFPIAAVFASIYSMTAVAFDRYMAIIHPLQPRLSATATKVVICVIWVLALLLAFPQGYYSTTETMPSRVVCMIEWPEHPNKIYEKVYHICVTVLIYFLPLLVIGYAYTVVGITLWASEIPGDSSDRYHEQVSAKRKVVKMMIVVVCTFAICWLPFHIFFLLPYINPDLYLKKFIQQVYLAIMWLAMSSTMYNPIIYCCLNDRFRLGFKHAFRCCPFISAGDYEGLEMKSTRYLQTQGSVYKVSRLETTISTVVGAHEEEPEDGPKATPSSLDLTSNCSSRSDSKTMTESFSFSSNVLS
- experiment-notes: Binding affinity against Neurokinin 1(NK1) receptor from human IM-9 cells using [I]-Bolton Hunter labeled SP
pIC50: −log10 of the molar value.
experimental-readout: pIC50

1) COc1cc(C(=O)N2CCC(CCN3CCC(C(N)=O)(c4ccccc4)CC3)(c3ccc(Cl)c(Cl)c3)C2)cc(OC)c1C (centres undefined); 7.19
2) COc1c(C)cc(C(=O)N2CCC(CCN3CCC(C(N)=O)(c4ccccc4)CC3)(c3ccc(Cl)c(Cl)c3)C2)cc1C (centres undefined); 6.77
3) NC(=O)C1(c2ccccc2)CCN(CCC2(c3ccc(Cl)c(Cl)c3)CCN(C(=O)c3ccccc3)C2)CC1 (centres undefined); 6.57
4) COc1cc(CC(=O)N2CCC(CCN3CCC(C(N)=O)(c4ccccc4)CC3)(c3ccc(Cl)c(Cl)c3)C2)cc(OC)c1OC (centres undefined); 7.18

###

- measurement-target: Substance-K receptor (Homo sapiens)
- experiment-notes: Binding affinity against human NK2 receptors from HSKR-1 cells using [125I]-Iodohistidyl NKA
experimental-readout: IC50 (nM)

1. COc1cc(OC)cc(C(=O)N2CCC(CCN3CCC(C(N)=O)(c4ccccc4)CC3)(c3ccc(Cl)c(Cl)c3)C2)c1 (stereo not drawn); 19.1
2. COc1cccc(OC)c1C(=O)N1CCC(CCN2CCC(C(N)=O)(c3ccccc3)CC2)(c2ccc(Cl)c(Cl)c2)C1 (stereo not drawn); 53.2
3. COc1c(C)cc(C(=O)N2CCC(CCN3CCC(C(N)=O)(c4ccccc4)CC3)(c3ccc(Cl)c(Cl)c3)C2)cc1C (stereo not drawn); 6.94
4. COc1ccccc1C(=O)N1CCC(CCN2CCC(C(N)=O)(c3ccccc3)CC2)(c2ccc(Cl)c(Cl)c2)C1 (stereo not drawn); 16.7
5. CC(C)Oc1cccc(CC(=O)N2CCC(CCN3CCC(C(N)=O)(c4ccccc4)CC3)(c3ccc(Cl)c(Cl)c3)C2)c1 (stereo not drawn); 548
6. COc1ccc(C(=O)N2CCC(CCN3CCC(C(N)=O)(c4ccccc4)CC3)(c3ccc(Cl)c(Cl)c3)C2)cc1 (stereo not drawn); 11.8
7. COc1cc(CC(=O)N2CCC(CCN3CCC(C(N)=O)(c4ccccc4)CC3)(c3ccc(Cl)c(Cl)c3)C2)cc(OC)c1OC (stereo not drawn); 55.5
8. COc1cccc(C(=O)N2CCC(CCN3CCC(C(N)=O)(c4ccccc4)CC3)(c3ccc(Cl)c(Cl)c3)C2)c1 (stereo not drawn); 12
